Target: D1 dopamine receptors (Rattus norvegicus, UniProt P18901)
Sequence (P18901 whole entry): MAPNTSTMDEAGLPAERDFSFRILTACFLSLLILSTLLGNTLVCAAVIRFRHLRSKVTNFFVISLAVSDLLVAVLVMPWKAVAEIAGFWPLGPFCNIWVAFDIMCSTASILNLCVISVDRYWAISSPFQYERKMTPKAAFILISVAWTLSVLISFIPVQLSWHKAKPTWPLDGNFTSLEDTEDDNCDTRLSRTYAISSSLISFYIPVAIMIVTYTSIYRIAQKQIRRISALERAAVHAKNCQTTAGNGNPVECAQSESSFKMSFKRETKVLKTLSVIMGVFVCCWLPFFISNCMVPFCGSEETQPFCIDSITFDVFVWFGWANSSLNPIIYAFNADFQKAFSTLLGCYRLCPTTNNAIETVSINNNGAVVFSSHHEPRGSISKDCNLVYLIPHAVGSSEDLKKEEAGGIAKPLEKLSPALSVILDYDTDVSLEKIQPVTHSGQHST
Assay: Inhibition of tritiated SCH 23390 binding to D1 dopamine receptors, rat striatal samples
Details: rat striatum, tritiated SCH 23390, pH 7.4, 37° C., 30 minutes
Procedure: Striatal samples from the brains of male Charles River CD rats weighing between 140-250 g were homogenised in ice-cold 50 mM Tris-HCl buffer (pH 7.4 when measured at 25° C. for D1 binding assays and pH 7.7 when measured at 25° C. for D2 binding assays) and centrifuged for 10 minutes (at 21,000 g when used for D1 binding assay and 40,000 g when used for D2 binding assays). The pellet was resuspended in the same buffer, again centrifuged and the final pellet stored at -80° C. […]
Just a reminder that ties go to NO: only Ki strictly below 40 nM counts as YES.

INSERT INTO measurements (compound, study_system, class_label) VALUES
  ('Br.Cc1cc2c(cc1O)C(C1(c3ccsc3)CC1)N(C)CC2 (racemic) [Example 8, hydrobromide]', 'D1 dopamine receptors (Rattus norvegicus, UniProt P18901)', 'YES'),
  ('CN1CCc2ccc(O)cc2C1C1(c2ccccn2)CCC1.O=C(O)C(=O)O (centres unmarked) [Example 10, oxalate]', 'D1 dopamine receptors (Rattus norvegicus, UniProt P18901)', 'NO'),
  ('Cc1cc2c(cc1O)C(C1(c3ccsc3)CC1)N(C)CC2 (single isomer, unassigned; (-)) [Example 7, hydrate]', 'D1 dopamine receptors (Rattus norvegicus, UniProt P18901)', 'YES'),
  ('Cc1cc2c(cc1O)C(C1(c3ccccn3)CC1)N(C)CC2 (centres unmarked)', 'D1 dopamine receptors (Rattus norvegicus, UniProt P18901)', 'NO'),
  ('Cc1cc2c(cc1O)C(C1(C3CCCc4ccccc43)CC1)N(C)CC2 (centres unmarked) [Example 4, hydrate]', 'D1 dopamine receptors (Rattus norvegicus, UniProt P18901)', 'YES'),
  ('Cc1cc2c(cc1O)C(C1(C3C=CCCC3)CCC1)N(C)CC2.O=C(O)C(=O)O (centres unmarked) [Example 3, oxalate]', 'D1 dopamine receptors (Rattus norvegicus, UniProt P18901)', 'NO'),
  ('Br.Cc1cc2c(cc1O)C(C1(c3cccs3)CC1)N(C)CC2 (centres unmarked) [Example 5, hydrobromide]', 'D1 dopamine receptors (Rattus norvegicus, UniProt P18901)', 'YES');

====

target: D2 dopamine receptors (Rattus norvegicus, UniProt P61169); test: Inhibition of tritiated (S)-sulpiride binding to D2 dopamine receptors, rat striatal samples; details: rat striatum, pH 7.7, 4° C., 40 minutes
Sequence (P61169 whole entry): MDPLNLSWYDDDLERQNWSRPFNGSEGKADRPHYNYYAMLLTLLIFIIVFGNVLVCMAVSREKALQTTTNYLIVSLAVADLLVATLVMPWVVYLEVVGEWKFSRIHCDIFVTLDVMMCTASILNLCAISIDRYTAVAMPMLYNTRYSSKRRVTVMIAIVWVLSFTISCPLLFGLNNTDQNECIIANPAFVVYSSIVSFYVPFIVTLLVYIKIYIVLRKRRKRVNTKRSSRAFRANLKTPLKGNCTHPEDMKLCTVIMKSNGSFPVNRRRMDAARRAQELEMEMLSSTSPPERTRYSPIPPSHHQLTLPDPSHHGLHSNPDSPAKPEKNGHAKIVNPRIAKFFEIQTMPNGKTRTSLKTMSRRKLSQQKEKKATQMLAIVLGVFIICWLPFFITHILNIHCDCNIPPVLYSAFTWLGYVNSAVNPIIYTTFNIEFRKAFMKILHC
Just a reminder that ties go to n: only Ki strictly below 7 µM counts as y.

INSERT INTO measurements (compound, class_label) VALUES
  ('Cc1cc2c(cc1O)C(C1(C3C=CCCC3)CCC1)N(C)CC2.O=C(O)C(=O)O (centres unmarked) [Example 3, oxalate]', 'n'),
  ('Br.Cc1cc2c(cc1O)C(C1(c3ccsc3)CC1)N(C)CC2 (racemic) [Example 8, hydrobromide]', 'y'),
  ('Cc1cc2c(cc1O)C(C1(c3ccsc3)CC1)N(C)CC2 (single isomer, unassigned; (-)) [Example 7, hydrate]', 'n'),
  ('Br.CC(C)CC1(C2c3cc(O)ccc3CCN2C)CCC1 (centres unmarked) [Example 1, hydrobromide]', 'n'),
  ('Cc1cc2c(cc1O)C(C1(c3ccco3)CC1)N(C)CC2.O=C(O)/C=C\C(=O)O (centres unmarked) [Example 9, maleate]', 'n'),
  ('Cc1cc2c(cc1O)C(C1(c3ccsc3)CC1)N(C)CC2.O=C(O)C(=O)O (single isomer, unassigned; (-)) [Example 6, oxalate]', 'y'),
  ('Br.Cc1cc2c(cc1O)C(C1(c3cccs3)CC1)N(C)CC2 (centres unmarked) [Example 5, hydrobromide]', 'y'),
  ('Cc1cc2c(cc1O)C(C1(c3ccccn3)CC1)N(C)CC2 (centres unmarked)', 'y'),
  ('Cc1cc2c(cc1O)C(C1(CC3CCCC3)CC1)N(C)CC2 (centres unmarked)', 'y'),
  ('Cc1cc2c(cc1O)C(C1(C3CCCc4ccccc43)CC1)N(C)CC2 (centres unmarked) [Example 4, hydrate]', 'y');

====

biological target: D1 dopamine receptors (Rattus norvegicus, UniProt P18901); test: Inhibition of tritiated SCH 23390 binding to D1 dopamine receptors, rat striatal samples; set-up: species or system rat (male Charles River CD rats); conditions: ratio between the D2 and D1 Ki values, to two significant figures
RECORDED_METRIC: Ki for D2 / Ki for D1

INSERT INTO results (compound, recorded_metric, readout_number) VALUES
  ('Cc1cc2c(cc1O)C(C1(C3C=CCCC3)CCC1)N(C)CC2.O=C(O)C(=O)O (stereo not drawn) [Example 3]', 'Ki for D2 / Ki for D1', 120),
  ('Br.CC(C)CC1(C2c3cc(O)ccc3CCN2C)CCC1 (stereo not drawn) [Example 1]', 'Ki for D2 / Ki for D1', 68),
  ('Cc1cc2c(cc1O)C(C1(c3ccsc3)CC1)N(C)CC2 (single isomer, unassigned; (-)) [Example 7, hydrate]', 'Ki for D2 / Ki for D1', 2000);

====

target: D1 dopamine receptors (Rattus norvegicus); test: Inhibition of tritiated SCH 23390 binding to D1 dopamine receptors, rat striatal samples; settings: rat striatum, tritiated SCH 23390, pH 7.4, 37° C., 30 minutes
RECORDED_METRIC: Ki (nM)

INSERT INTO measurements (compound, readout_number) VALUES
  ('Br.CC(C)CC1(C2c3cc(O)ccc3CCN2C)CCC1 (stereo not drawn) [Example 1, hydrobromide]', 370),
  ('Cc1cc2c(cc1O)C(C1(c3ccsc3)CC1)N(C)CC2.O=C(O)C(=O)O (single isomer, unassigned; (-)) [Example 6, oxalate]', 2.1),
  ('Cc1cc2c(cc1O)C(C1(CC3CCCC3)CC1)N(C)CC2 (stereo not drawn)', 7.9);

====

biological target: D1 dopamine receptors (Rattus norvegicus, UniProt P18901); assay: Inhibition of tritiated SCH 23390 binding to D1 dopamine receptors, rat striatal samples; parameters: species or system rat (male Charles River CD rats); settings: ratio between the D2 and D1 Ki values, to two significant figures
RECORDED_METRIC: Ki for D2 / Ki for D1

INSERT INTO results (molecule, readout_number) VALUES
  ('Cc1cc2c(cc1O)C(C1(c3ccccn3)CC1)N(C)CC2 (centres unmarked)', 79),
  ('Cc1cc2c(cc1O)C(C1(C3CCCc4ccccc43)CC1)N(C)CC2 (centres unmarked) [Example 4, hydrate]', 28),
  ('Cc1cc2c(cc1O)C(C1(c3ccco3)CC1)N(C)CC2.O=C(O)/C=C\C(=O)O (centres unmarked)', 220),
  ('Br.Cc1cc2c(cc1O)C(C1(c3cccs3)CC1)N(C)CC2 (centres unmarked)', 94),
  ('Br.Cc1cc2c(cc1O)C(C1(c3ccsc3)CC1)N(C)CC2 (racemic)', 220),
  ('CN1CCc2ccc(O)cc2C1C1(c2ccccn2)CCC1.O=C(O)C(=O)O (centres unmarked)', 44),
  ('Cc1cc2c(cc1O)C(C1(CC3CCCC3)CC1)N(C)CC2 (centres unmarked)', 290),
  ('Cc1cc2c(cc1O)C(C1(c3ccsc3)CC1)N(C)CC2.O=C(O)C(=O)O (single isomer, unassigned; (-))', 2300);
